Test system: Wnt activity (Sp5-Luc reporter, Wnt-responsive promoter) in SW480 colon carcinoma cells
TEST DESCRIPTION: Wnt activity screening assay: Sp5-Luc reporter gene assay in SW480 cells
Format: cell-based
STUDY CONDITIONS: Homo sapiens, overnight incubation, 10-point curve starting from 10 μM
REPORTED PROPERTY: EC50 (µM)

Sample answers from the record:
COc1cncc(-c2ccc3[nH]nc(-c4nc5c(-c6cccc(F)c6)cccc5[nH]4)c3n2)c1 [Compound 516]	0.923
CN(C)CCOc1cncc(-c2ccc3[nH]nc(-c4nc5c(-c6cccc(F)c6)cccc5[nH]4)c3n2)c1 [Compound 515]	4.67
Fc1cccc(-c2cccc3[nH]c(-c4n[nH]c5ccc(-c6cncc(OCCN7CCCC7)c6)nc45)nc23)c1 [Compound 514]	1.17
CN(C)Cc1cncc(-c2ccc3[nH]nc(-c4nc5c(N6CCCCC6)cccc5[nH]4)c3n2)c1 [Compound 181]	1.89
c1ccc(CNCc2cncc(-c3ccc4[nH]nc(-c5nc6c(-c7ccsc7)cccc6[nH]5)c4n3)c2)cc1 [Compound 304]	2.76
CN(C)CCNc1cc(F)cc(-c2cccc3[nH]c(-c4n[nH]c5ccc(-c6cncc(OCc7ccccc7)c6)nc45)nc23)c1 [Compound 790]	1.12
NC1CN(c2cncc(-c3ccc4[nH]nc(-c5nc6c(-c7ccc(Cl)s7)cccc6[nH]5)c4n3)n2)C1 [Compound 1068]	1.24
c1ccc(-c2ccc3[nH]nc(-c4nc5ccccc5[nH]4)c3n2)nc1 [Compound 280]	0.611
CC(C)(C)CC(=O)Nc1cncc(-c2ccc3[nH]nc(-c4nc5ccccc5[nH]4)c3n2)c1 [Compound 268]	3.55
Cc1ccncc1-c1ccc2[nH]nc(-c3nc4c(-c5ccsc5)cccc4[nH]3)c2n1 [Compound 285]	0.986

1 = CN(C)CCNc1cc(F)cc(-c2cccc3[nH]c(-c4n[nH]c5ccc(-c6ccccn6)nc45)nc23)c1 [Compound 476]
2 = COc1cccc(-c2cccc3[nH]c(-c4n[nH]c5ccc(-c6cccnc6)nc45)nc23)c1 [Compound 994]
IN: Hi, I'm comparing two records. Which one has the lower EC50, 1 or 2 ? Record your answer as the label of the chosen record.
OUT: 1
